# SYSTEM: human TRPC5 (Homo sapiens)
# Construct: expressed in transfected cells
# Sequence (Q9UL62 whole entry): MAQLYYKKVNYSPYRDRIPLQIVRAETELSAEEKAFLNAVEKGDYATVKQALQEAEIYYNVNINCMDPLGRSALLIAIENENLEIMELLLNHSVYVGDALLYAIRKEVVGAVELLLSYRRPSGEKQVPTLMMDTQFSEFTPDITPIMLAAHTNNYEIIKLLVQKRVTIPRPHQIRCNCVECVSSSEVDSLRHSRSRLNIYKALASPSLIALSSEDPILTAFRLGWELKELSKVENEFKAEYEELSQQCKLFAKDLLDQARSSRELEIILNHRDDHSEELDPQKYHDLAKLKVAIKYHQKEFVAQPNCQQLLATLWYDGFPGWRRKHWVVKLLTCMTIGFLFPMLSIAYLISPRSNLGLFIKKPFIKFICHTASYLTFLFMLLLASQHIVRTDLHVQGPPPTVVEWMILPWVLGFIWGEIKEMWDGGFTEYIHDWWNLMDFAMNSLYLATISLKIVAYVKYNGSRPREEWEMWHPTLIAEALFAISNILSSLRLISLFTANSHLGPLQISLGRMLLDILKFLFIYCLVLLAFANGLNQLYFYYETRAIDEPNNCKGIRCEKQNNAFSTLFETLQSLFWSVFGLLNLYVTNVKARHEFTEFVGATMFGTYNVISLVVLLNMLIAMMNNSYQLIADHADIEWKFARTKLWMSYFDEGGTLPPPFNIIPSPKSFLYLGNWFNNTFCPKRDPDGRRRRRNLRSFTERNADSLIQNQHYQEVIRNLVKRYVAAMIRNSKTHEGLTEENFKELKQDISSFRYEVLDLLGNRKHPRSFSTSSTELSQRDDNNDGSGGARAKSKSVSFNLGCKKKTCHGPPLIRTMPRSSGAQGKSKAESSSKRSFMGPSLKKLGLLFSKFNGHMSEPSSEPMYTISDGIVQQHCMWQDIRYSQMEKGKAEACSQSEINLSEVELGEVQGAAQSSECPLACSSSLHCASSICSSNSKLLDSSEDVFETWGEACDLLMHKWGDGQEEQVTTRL
# PROTOCOL_DETAILS: FLIPR calcium assay, inhibition of riluzole-activated TRPC5 calcium response
# Format: cell-based
# EXPERIMENTAL_CONDITIONS: ICLN-1633 cells; riluzole 30 μM stimulation; Fluo-4 calcium response; read-out: Inhibitor Potency Range (FLIPR)
Reported IC50 values for the following compounds.

Identify the reported IC50 for the following entry. COCCCN1CC(=O)N(C)c2nc(Oc3cccc(OC(F)(F)F)c3)n(Cc3ccc(Cl)cc3)c2C1=O
1 to 10 µM

Specify measured IC50 for O=C1c2c(nc(Oc3cccc(Cl)c3)n2Cc2ccc(Cl)cc2)N2CCC[C@H]2C(=O)N1CCCO .
0.001 to 1 µM

Please look at this compound and report its IC50: CC(C)Oc1nc2c(n1Cc1ccc(Cl)cc1)C(=O)N(CCCO)C(=O)[C@H]1CCCN21
> 10 µM

Quickly give me recorded IC50 for CCCCn1c(Oc2cccc(F)c2)nc2c1C(=O)N(CCCO)C(=O)[C@@H]1CCCN21 (single isomer, unassigned)
0.001 to 1 µM

Supply IC50 value. Item: CN1C(=O)CN([C@@H]2CC[C@@H](O)C2)C(=O)c2c1nc(Oc1cccc(OC(F)(F)F)c1)n2Cc1ccc(Cl)cc1 (single isomer, unassigned)
0.001 to 1 µM

Provide IC50 value for the following compound: CCCCn1c(Oc2cccc(F)c2)nc2c1C(=O)N(CCCO)C(=O)[C@H]1CCCN21 (single isomer, unassigned)
> 10 µM

Quickly give me recorded IC50 for CN1C(=O)[C@@H](CCO)N(C)C(=O)c2c1nc(Oc1cccc(OC(F)(F)F)c1)n2Cc1ccc(Cl)cc1 (single isomer, unassigned)
> 10 µM

Look up IC50 of C[C@@H](c1ccc(Cl)cc1)n1c(Oc2cccc(F)c2)nc2c1C(=O)N(CCCO)CC(=O)N2C (single isomer, unassigned) and report it.
> 10 µM

Identify measured IC50 corresponding to C[C@H](c1ccc(Cl)cc1)n1c(Oc2cccc(F)c2)nc2c1C(=O)N(CCCO)CC(=O)N2C (single isomer, unassigned)
> 10 µM

Query IC50 for O=C1c2c(nc(Oc3cccc(F)c3)n2Cc2ccc(Cl)cc2)N2CCC[C@@H]2C(=O)N1CCCO
> 10 µM

====

# SYSTEM: human TRPC5 (Homo sapiens)
# Construct: expressed in transfected cells
# PROTOCOL_DETAILS: Automated patch clamp assay (QPatch), antagonist mode
# Type: cell-based
# EXPERIMENTAL_CONDITIONS: HEK-TREx hTRPC5 cells; channel activated with Rosiglitazone 30 μM; normalised to ML-204 block; read-out: Qpatch Potency Range
# Method: ICLN-1633 cells (HEK-TREx hTRPC5) expressing TRPC5 were generated as follows. […] The automated electrophysiological assay was carried out at room temperature. […] The series resistance and quality of seals were continuously monitored during the experiments. Data were analyzed using Sophion QPatch assay software 5.6 (Odense). […] IC50 values were calculated using a least squares regression algorithm (Hill equation). […]
pIC50: −log10 of the molar value.
Listed below: pIC50 values for each entry.

Example compounds with recorded pIC50:
O=C1c2c(nc(Oc3cccc(OC(F)(F)F)c3)n2Cc2ccc(Cl)cc2)N2CCC[C@@H]2C(=O)N1CCCO (single isomer, unassigned) [Compound 23] | 4.52 to 6.00
CN1C(=O)CN(CCCO)C(=O)c2c1nc(Oc1cccc(OC(F)(F)F)c1)n2Cc1ccc(Cl)cc1 [Compound 2] | 4.52 to 6.00
CN1C(=O)CN([C@H]2C[C@H](O)C2)C(=O)c2c1nc(Oc1cccc(OC(F)(F)F)c1)n2Cc1ccc(Cl)cc1 [Compound 13] | 4.52 to 6.00

Look up and report measured pIC50 for this entry: CN1C(=O)[C@H](CCO)N(C)C(=O)c2c1nc(Oc1cccc(OC(F)(F)F)c1)n2Cc1ccc(Cl)cc1 (single isomer, unassigned) [Compound 17]
< 4.52

// fetch pIC50 given entry CN1C(=O)CN(CC(F)(F)CO)C(=O)c2c1nc(Oc1cccc(OC(F)(F)F)c1)n2Cc1ccc(Cl)cc1 [Compound 11]
< 4.52

Consider the compound CN1C(=O)[C@@H](CCO)N(C)C(=O)c2c1nc(Oc1cccc(OC(F)(F)F)c1)n2Cc1ccc(Cl)cc1 (single isomer, unassigned) [Compound 18] . State its measured pIC50.
6.00 to 9.00

Please report the measured pIC50 for CN1CC(=O)N(CCCO)C(=O)c2c1nc(Oc1cccc(OC(F)(F)F)c1)n2Cc1ccc(Cl)cc1 [Compound 21]
4.52 to 6.00
